Where do these numbers come from? They come from patent US9181277B2.

TARGET_DESC: EGFR Kinase (Homo sapiens)
Sequence (P00533 25-1210): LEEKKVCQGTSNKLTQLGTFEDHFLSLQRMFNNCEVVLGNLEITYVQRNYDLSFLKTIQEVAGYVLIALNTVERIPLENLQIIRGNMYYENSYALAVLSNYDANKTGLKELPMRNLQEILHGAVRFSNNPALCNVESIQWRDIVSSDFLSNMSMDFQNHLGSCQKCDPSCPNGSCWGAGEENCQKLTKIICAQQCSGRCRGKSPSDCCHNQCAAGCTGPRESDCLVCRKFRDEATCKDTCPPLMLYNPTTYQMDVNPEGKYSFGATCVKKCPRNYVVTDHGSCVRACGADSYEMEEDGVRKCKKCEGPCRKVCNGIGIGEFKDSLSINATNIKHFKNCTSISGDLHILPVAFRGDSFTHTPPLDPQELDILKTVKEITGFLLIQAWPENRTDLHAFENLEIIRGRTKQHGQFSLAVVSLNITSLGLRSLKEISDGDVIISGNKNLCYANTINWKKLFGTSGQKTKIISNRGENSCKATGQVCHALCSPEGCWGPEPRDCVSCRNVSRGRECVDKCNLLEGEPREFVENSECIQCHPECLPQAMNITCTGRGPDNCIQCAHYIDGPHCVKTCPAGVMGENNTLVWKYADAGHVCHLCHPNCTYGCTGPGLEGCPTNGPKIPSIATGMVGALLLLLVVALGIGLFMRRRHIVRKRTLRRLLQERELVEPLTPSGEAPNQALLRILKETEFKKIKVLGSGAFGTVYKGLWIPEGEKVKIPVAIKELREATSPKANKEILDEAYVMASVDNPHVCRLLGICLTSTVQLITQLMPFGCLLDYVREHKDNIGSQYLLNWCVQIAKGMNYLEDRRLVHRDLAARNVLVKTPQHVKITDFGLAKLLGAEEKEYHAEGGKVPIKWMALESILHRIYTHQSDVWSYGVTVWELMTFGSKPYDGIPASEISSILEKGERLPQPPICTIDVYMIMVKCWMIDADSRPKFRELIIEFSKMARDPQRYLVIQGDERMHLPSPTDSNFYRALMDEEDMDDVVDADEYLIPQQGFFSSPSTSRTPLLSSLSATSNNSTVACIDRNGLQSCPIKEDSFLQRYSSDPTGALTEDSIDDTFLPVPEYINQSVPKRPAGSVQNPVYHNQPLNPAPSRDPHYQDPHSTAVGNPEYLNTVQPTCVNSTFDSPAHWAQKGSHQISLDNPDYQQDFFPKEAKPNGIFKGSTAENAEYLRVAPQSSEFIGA
ASSAY_PROTOCOL: EGFR inhibitory activity test (HTRF kinEASE STK S1 kinase assay)
Type: biochemical
CONDITIONS_USED: replicate wells, read-out: IC50(nM), Inhibitory Activity of Compounds on EGFR Kinase
ASSAY_READOUT: IC50

Known results for compounds:
| COMPOUND | TARGET_DESC | IC50 |
| --- | --- | --- |
| COc1cc2ncnc(Nc3ccc(Br)cc3F)c2cc1OCCCN1CC2OCCOC2C1 (stereo not shown) [Example 10] | EGFR Kinase (Homo sapiens) | > 10 nM |
| CCN1CC2CCCN(CCCOc3cc4c(Nc5ccc(F)c(Cl)c5)ncnc4cc3OC)C2C1 (stereo not shown) [Example 29] | EGFR Kinase (Homo sapiens) | 0.001 to 0.1 nM |
| COc1cc2ncnc(Nc3ccc(F)c(Cl)c3)c2cc1OCCCN1CC2OCCN(Cc3ccccc3)C2C1 (stereo not shown) [Example 16] | EGFR Kinase (Homo sapiens) | 1 to 10 nM |
| COc1cc2ncnc(Nc3ccc(F)c(Cl)c3)c2cc1OCCCN1CC2OCCOC2C1 (stereo not shown) [Example 6] | EGFR Kinase (Homo sapiens) | 0.001 to 0.1 nM |
| COc1cc2ncnc(Nc3ccc(F)c(Cl)c3)c2cc1OCCCN1CC2CNCC2C1 (stereo not shown) [Example 11] | EGFR Kinase (Homo sapiens) | 0.001 to 0.1 nM |
| COc1cc2ncnc(Nc3ccc(F)c(Cl)c3)c2cc1OCCCN1CCc2c(c(C)nn2C)C1 [Example 38] | EGFR Kinase (Homo sapiens) | 0.101 to 1 nM |

q: Can you look up IC50 on EGFR Kinase (Homo sapiens) for COc1cc2ncnc(Nc3ccc(F)c(Cl)c3)c2cc1OCCCN1CC2CN(C)CC2C1 (stereo not shown) [Example 12] ?
a: 0.101 to 1 nM

q: Same thing, different compound: COc1cc2ncnc(Nc3ccc(F)c(Cl)c3)c2cc1OCCCN1CCCC2CN(C)CC21 (stereo not shown) [Example 27]
a: 0.001 to 0.1 nM

q: Same thing, different compound: C#Cc1cc(Nc2ncnc3cc(OC)c(OCCCN4CC5OCCOC5C4)cc23)ccc1F (stereo not shown) [Example 9]
a: 1 to 10 nM

q: Same thing, different compound: COc1cc2ncnc(Nc3ccc(F)c(Cl)c3)c2cc1OCCCN1CC2CCCNC2C1 (stereo not shown) [Example 25]
a: 0.001 to 0.1 nM
